MEASUREMENT PROTOCOL: clinical
RUN CONDITIONS: human, serum, po, 1200 mg
MEASURED METRIC: AUC(0-inf) (ng·h/mL)
Provide only the numeric value, understood in ng·h/mL.

// query Find the measured AUC(0-inf) of CC[C@H]1OC(=O)[C@H](C)[C@@H](O[C@H]2C[C@@](C)(OC)[C@@H](O)[C@H](C)O2)[C@H](C)[C@@H](O[C@@H]2O[C@H](C)C[C@H](N(C)C)[C@H]2O)[C@](C)(O)C[C@@H](C)CN(C)[C@H](C)[C@@H](O)[C@]1(C)O [Azithromycin] and report it.
// result 11500
